Biological target: T1, FZD10 CRD (Homo sapiens, UniProt Q9ULW2)
T1 construct: 30-156; GPI anchor signal (C); expressed in transfected cells; host or cells: CHO cells, lentiviral pLenti-puro
T1 sequence (Q9ULW2 30-156): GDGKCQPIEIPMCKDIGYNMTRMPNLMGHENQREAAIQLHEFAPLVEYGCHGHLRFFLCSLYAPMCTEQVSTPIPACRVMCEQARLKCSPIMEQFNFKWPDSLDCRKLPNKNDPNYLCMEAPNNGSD
Assay: Immunofluorescence of anti-FZD5 Fab binding to CHO cells overexpressing Frizzled CRD
Set-up: key: −: no binding; +: very weak binder; ++: weak binder; +++: good binder; ++++: very good binder
quantity: Immunofluorescence binding, Frizzled CRD overexpressed on CHO cells: FZD10

molecule	result
Fab-2903: anti-FZD5 Fab with antibody variable region Fv-2903; CDR SEQ ID NOs: 35, 36, 42, 81, 118, 155 (antibody, V domains shown) VH: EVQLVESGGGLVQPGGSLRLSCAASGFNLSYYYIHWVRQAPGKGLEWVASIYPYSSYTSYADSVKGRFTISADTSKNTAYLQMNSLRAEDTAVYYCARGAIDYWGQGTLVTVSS VL: DIQMTQSPSSLSASVGDRVTITCRASQSVSSAVAWYQQKPGKAPKLLIYSASSLYSGVPSRFSGSRSGTDFTLTISSLQPEDFATYYCQQWGGGSSLFTFGQGTKVEIK	−
Fab-2901: anti-FZD5 Fab with antibody variable region Fv-2901; CDR SEQ ID NOs: 35, 36, 40, 79, 116, 154 (antibody, V domains shown) VH: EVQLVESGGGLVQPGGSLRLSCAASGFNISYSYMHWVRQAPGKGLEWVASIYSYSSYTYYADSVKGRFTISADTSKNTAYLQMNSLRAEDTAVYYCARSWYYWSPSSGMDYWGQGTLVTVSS VL: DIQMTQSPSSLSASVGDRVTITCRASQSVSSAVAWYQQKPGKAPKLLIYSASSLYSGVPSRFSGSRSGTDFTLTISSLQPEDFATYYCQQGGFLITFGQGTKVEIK	−
